- Test system: PDE4
- TEST DETAILS: Inhibition of PDE4, radioenzymatic phosphodiesterase assay
- Type: biochemical, bovine
- MEASUREMENT CONTEXT: Table 3, formula (II); compound at 10 μM
ASSAY ENDPOINT: PDE4 percentage inhibition at 10 μM (%)
Value expressed in %; do not type the unit.

(Q) Consider the molecule shown here: CCN1C(=O)CN=C(c2ccccc2)c2cc(O)c(O)cc21 What is its recorded PDE4 percentage inhibition at 10 μM?
(A) 14.2

(Q) Consider the molecule shown here: CCN1C(=O)C(Cc2ccc(Br)cc2)N=C(c2ccccc2)c2cc(OC)c(OC)cc21 (stereo not drawn) What is its recorded PDE4 percentage inhibition at 10 μM?
(A) 20.1

(Q) Consider the molecule shown here: COc1cc2c(cc1OC)N(C)C(=O)CN=C2C#Cc1ccccc1 What is its recorded PDE4 percentage inhibition at 10 μM?
(A) 3.9

(Q) Consider the molecule shown here: CCCN1C(=O)CN=C(c2ccccc2)c2cc(OC)c(OC)cc21 What is its recorded PDE4 percentage inhibition at 10 μM?
(A) 34.7

(Q) Consider the molecule shown here: COc1cc2c(cc1OC)N(C)C(=O)CN=C2N1CCc2ccccc2C1 What is its recorded PDE4 percentage inhibition at 10 μM?
(A) 15

(Q) Consider the molecule shown here: CCN1C(=O)C(CC#N)N=C(c2ccccc2)c2cc(OC)c(OC)cc21 (stereo not drawn) What is its recorded PDE4 percentage inhibition at 10 μM?
(A) 28.5

(Q) Consider the molecule shown here: COc1cc2c(cc1OC)N(C)C(=O)CN=C2CCc1ccccc1 What is its recorded PDE4 percentage inhibition at 10 μM?
(A) 6.9

(Q) Consider the molecule shown here: CCN1C(=O)C(Cc2ccc(Cl)cc2Cl)N=C(c2ccccc2)c2cc(OC)c(OC)cc21 (stereo not drawn) What is its recorded PDE4 percentage inhibition at 10 μM?
(A) 34.3

(Q) Consider the molecule shown here: CCN1C(=O)C(C(Cc2ccc(Br)cc2)c2ccc(Br)cc2)N=C(c2ccccc2)c2cc(OC)c(OC)cc21 (stereo not drawn) [IIde] What is its recorded PDE4 percentage inhibition at 10 μM?
(A) 0
